species: Rattus norvegicus; assay: DrugMatrix - Regimen: Daily Repeat; type: toxicity, organism-based, Sprague-Dawley; design: regimen Daily Repeat, gender Male, age 6-8 weeks; details: in vivo, po, 10 mg/kg, 120 h, tissue Plasma, route oral GAVAGE, dose level Low, time 5 day, vehicle .5 % CMC
Would you mind telling me the reported ASPARTATE AMINOTRANSFERASE of each entry?
The reply should be a number in u/L, with the unit left off.

Fill blank: measured ASPARTATE AMINOTRANSFERASE of the compound O=C1CN=C(c2ccccc2)c2cc([N+](=O)[O-])ccc2N1 [NITRAZEPAM] is ____.
77.33

Fill blank: measured ASPARTATE AMINOTRANSFERASE of the compound NS(=O)(=O)c1cc2c(cc1Cl)NCNS2(=O)=O [HYDROCHLOROTHIAZIDE] is ____.
89.67

Fill blank: measured ASPARTATE AMINOTRANSFERASE of the compound COc1c(C)c2c(c(O)c1C/C=C(\C)CCC(=O)OCCN1CCOCC1)C(=O)OC2 [MYCOPHENOLATE MOFETIL] is ____.
99.67

Fill blank: measured ASPARTATE AMINOTRANSFERASE of the compound CC(=O)O[C@]1(C(C)=O)CC[C@H]2[C@@H]3C=C(Cl)C4=CC(=O)CC[C@]4(C)[C@H]3CC[C@@]21C [CHLORMADINONE ACETATE] is ____.
92.67

----------
species: Rattus norvegicus; assay: DrugMatrix - Regimen: Daily Repeat; type: toxicity, organism-based, Sprague-Dawley; parameters: regimen Daily Repeat, gender Male, age 6-8 weeks; conditions: in vivo, iv, 0 mg/kg, 72 h, tissue Plasma, dose level Control, time 3 day, vehicle 100 % SALINE
Would you mind telling me the reported POTASSIUM of each entry?
The reply should be a number in MEQ/L, with the unit left off.

Fill blank: measured POTASSIUM of the compound CC1(C)S[C@@H]2[C@H](NC(=O)[C@H](NC(=O)N3CCNC3=O)c3ccccc3)C(=O)N2[C@H]1C(=O)O [AZLOCILLIN] is ____.
6.68

Fill blank: measured POTASSIUM of the compound NCC[C@H](O)C(=O)N[C@@H]1C[C@H](N)[C@@H](O[C@H]2O[C@H](CN)[C@@H](O)[C@H](O)[C@H]2O)[C@H](O)[C@H]1O[C@H]1O[C@H](CO)[C@@H](O)[C@H](N)[C@H]1O [AMIKACIN] is ____.
5.47

Fill blank: measured POTASSIUM of the compound CN(N=O)C(=O)N[C@@H](C=O)[C@@H](O)[C@H](O)[C@H](O)CO [STREPTOZOCIN] is ____.
6.23

Fill blank: measured POTASSIUM of the compound CC[C@@]1(O)C(=O)OCc2c1cc1n(c2=O)Cc2cc3ccccc3nc2-1 [CAMPTOTHECIN] is ____.
5.67

----------
species: Rattus norvegicus; assay: DrugMatrix - Regimen: Daily Repeat; assay type: toxicity, organism-based, Sprague-Dawley; parameters: regimen Daily Repeat, gender Male, age 6-8 weeks; settings: in vivo, iv, 0 mg/kg, 72 h, tissue Blood, dose level Control, time 3 day, vehicle 100 % SALINE
Would you mind telling me the reported EOSINOPHIL of each entry?

Fill blank: measured EOSINOPHIL of the compound CC[C@@]1(O)C(=O)OCc2c1cc1n(c2=O)Cc2cc3ccccc3nc2-1 [CAMPTOTHECIN] is ____.
0.17%

Fill blank: measured EOSINOPHIL of the compound CN(N=O)C(=O)N[C@@H](C=O)[C@@H](O)[C@H](O)[C@H](O)CO [STREPTOZOCIN] is ____.
1.67%

Fill blank: measured EOSINOPHIL of the compound NCC[C@H](O)C(=O)N[C@@H]1C[C@H](N)[C@@H](O[C@H]2O[C@H](CN)[C@@H](O)[C@H](O)[C@H]2O)[C@H](O)[C@H]1O[C@H]1O[C@H](CO)[C@@H](O)[C@H](N)[C@H]1O [AMIKACIN] is ____.
0%

Fill blank: measured EOSINOPHIL of the compound CC1(C)S[C@@H]2[C@H](NC(=O)[C@H](NC(=O)N3CCNC3=O)c3ccccc3)C(=O)N2[C@H]1C(=O)O [AZLOCILLIN] is ____.
0.17%
